Attribution: patent US20240182596A1

Biological target: T1, human NaPi2b on NaPi2b-positive cell lines OVCAR-3 and HCC-78 (human, UniProt O95436 1-690)
T1 construct: Endogenous protein
T1 sequence: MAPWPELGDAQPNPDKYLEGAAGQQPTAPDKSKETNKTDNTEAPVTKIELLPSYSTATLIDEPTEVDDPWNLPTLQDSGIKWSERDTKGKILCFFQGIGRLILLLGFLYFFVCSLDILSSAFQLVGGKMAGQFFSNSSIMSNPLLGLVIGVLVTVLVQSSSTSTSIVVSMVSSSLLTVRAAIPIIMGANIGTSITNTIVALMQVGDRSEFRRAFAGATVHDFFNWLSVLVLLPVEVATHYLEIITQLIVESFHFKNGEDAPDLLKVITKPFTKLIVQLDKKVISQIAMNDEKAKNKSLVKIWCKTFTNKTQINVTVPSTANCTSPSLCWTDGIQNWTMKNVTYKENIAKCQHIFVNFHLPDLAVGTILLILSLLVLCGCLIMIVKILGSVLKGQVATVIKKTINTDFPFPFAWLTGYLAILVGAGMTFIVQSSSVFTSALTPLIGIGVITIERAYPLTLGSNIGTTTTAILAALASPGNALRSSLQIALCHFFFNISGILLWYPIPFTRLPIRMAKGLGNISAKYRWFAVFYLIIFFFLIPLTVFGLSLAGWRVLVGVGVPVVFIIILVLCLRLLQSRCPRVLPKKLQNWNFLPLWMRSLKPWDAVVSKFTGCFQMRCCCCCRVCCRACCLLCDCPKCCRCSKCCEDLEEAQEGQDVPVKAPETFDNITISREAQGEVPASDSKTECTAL
Test: flow cytometry on OVCAR-3 cells; table column Binding KD (nmol/L), FACS (OVCAR-3)
measurement.kind: Kd (nM)
Form entry: value (nM) — number only.

Please review the entries below; each comes with its answer.
binder	unit.annotation	Kd
AV-21 antibody (antibody, human IgG1, kappa, L234A L235A, V domains shown) VH: EVQLVQSGAEVVKPGASVKMSCKASGYTFTGQIIHWVKQAPGQGLEWIGAISPGNSGTSYKQKFRGRATLTADTSTSTVYMELSSLRSEDSAVYYCARGETARATFAYWGQGTLVTVSS VL: DIQMTQSPSSLSASVGDRVTITCSASQDIGNFLNWYQQKPGKTVKVLIYYTSSLYSGVPSRFSGSGSGTDYTLTISSLQPEDFATYYCQQYSKLPLTFGQGTKLELKR	nM	3.5
AV-18 antibody (antibody, human IgG1, kappa, L234A L235A, V domains shown) VH: EVQLVQSGAEVVKPGASVKMSCKASGYTFTGYIIHWVKQAPGQGLEWIGAIYPGSGATSYKQKFRGRATLTADTSTSTVYMELSSLRSEDSAVYYCARGETARATFAYWGQGTLVTVSS VL: DIQMTQSPSSLSASVGDRVTITCSASQDIGNFLNWYQQKPGKTVKVLIYYTSSLYSGVPSRFSGSGSGTDYTLTISSLQPEDFATYYCQQYSKLPLTFGQGTKLELKR	nM	3.8
AV-15 antibody (antibody, human IgG1, kappa, L234A L235A, V domains shown) VH: EVQLVQSGAEVVKPGASVKMSCKASGYTFTGYNIHWVKQAPGQGLEWIGAIYPGNGDTSYKQKFRGRATLTADTSTSTVYMELSSLRSEDSAVYYCARGETARATFAYWGQGTLVTVSS VL: DIQMTQSPSSLSASVGDRVTITCSASQDIGKFLNWYQQKPGKTVKVLIYYSSSLYSGVPSRFSGSGSGTDYTLTISSLQPEDFATYYCQQYSKVPLTFGQGTKLELKR	nM	6.6
AV-29 antibody (antibody, human IgG1, kappa, L234A L235A, V domains shown) VH: EVQLVQSGAEVVKPGASVKMSCKASGYTFTGYNILWVKQAPGQGLEWIGAIYPGNGGTSYKQKFRGRATITADTSTSTVYMELSSLRSEDSAVYYCARGEIARATFAYWGQGTLVTVSS VL: DIQMTQSPSSLSASVGDRVTITCSASQDIGNFLNWYQQKPGKTVKVLIYYASSLYSGVPSRFSGSGSGTDYTLTISSLQPEDFATYYCQQYSKLPLTFGQGTKLELKR	nM	3.5

Give its Kd value. Item: parental mAb (parental anti-NaPi2b antibody) (antibody, human IgG1, kappa, L234A L235A, V domains shown, also called parental antibody) VH: EVQLVQSGAEVVKPGASVKMSCKASGYTFTGYNIHWVKQAPGQGLEWIGAIYPGNGDTSYKQKFRGRATLTADTSTSTVYMELSSLRSEDSAVYYCARGETARATFAYWGQGTLVTVSS VL: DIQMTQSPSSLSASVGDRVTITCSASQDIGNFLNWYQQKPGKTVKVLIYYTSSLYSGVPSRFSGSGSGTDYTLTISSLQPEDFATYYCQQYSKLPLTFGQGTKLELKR 10.8
